system: MCF7 breast; test: NCI tumour cell line growth inhibition, 48 h
measured_metric: TGI (µM)
Numbers only; they are read as µM.

Worked cases, TGI given:
O=C1C=Cc2ccccc2/C1=C/c1[nH]c(=O)[nH]c1O    15.2
C=C[C@H]1CN2CCc3c([nH]c4c([C@H]5CCCN5C)c(O)ccc34)[C@@H]2C[C@@H]1C[C@H]1c2[nH]c3ccccc3c2CCN1C    2.22
OCCCCC#Cc1ccccc1C#Cc1ccccc1C(F)(F)F    31.6

As a next step, examine the compound that follows.
Reported TGI ( C/C=C(/C)C(=O)O[C@H]1C(C)=C[C@]23C(=O)[C@@H](C=C(COC(C)=O)[C@@H](O)[C@]12O)[C@H]1[C@@H](C[C@H]3C)[C@@]1(C)OC(=O)/C(C)=C\C ) = 6.11

Reference source for all entries: PubChem BioAssay (NCI)
